# protocol_notes: Plasmodium falciparum growth inhibition, primary screen, strain 3D7, DAPI fluorescence, 100 nL (AID 1184);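 further: parasites grown inside human red blood cells in medium with human serum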
# condition_details: P. falciparum 3D7 growth, 3 d, higher = more signal
Below, each entry is listed alongside its reported z-score.

compound	z-score
CC(C)[C@H]1NC(=O)[C@@]23C(=O)N[C@@H](Cc4ccccc4)C2[C@H](C)[C@@]2(C)O[C@H]2C3/C=C/C/C=C\CNC(=O)[C@H](C)NC1=O (some centres undefined)	-0.162
COC(=O)[C@@]1(Cc2ccccc2CN=[N+]=[N-])N=C(c2ccc(OCCCO)cc2)O[C@H]1c1ccccc1N=[N+]=[N-]	-1.94
O=C1OCCC=C[C@H]2OC34C=CCN(Cc5ccccc5)C(=O)[C@H]3N(CCO)C(=O)[C@@H]4C12 (some centres undefined)	-1.92
CC(C)NC(=O)[C@@]1(Cc2ccccc2I)c2ccccc2C(=O)N(C2CCCCC2)[C@H]1c1ccc(CO)cc1	-1.89
COCCOC(=O)N1C(=O)[C@@]2(c3cc(C#CC4=CCCCC4)ccc31)[C@H](C(=O)NC[C@H](O)c1ccccc1)[C@H]1C(=O)O[C@H](c3ccccc3)[C@H](c3ccccc3)N1[C@@H]2c1ccc(OCCO)cc1	-1.73
COc1ccc([Si](C)(C)[C@H]2[C@H](CC(=O)N(CCO)Cc3ccccc3)O[C@@]3(C(=O)N(C)c4ccccc43)[C@@H]2C)cc1	-0.134
COCCCNC(=O)[C@@]1(c2ccc([N+](=O)[O-])cc2)CC(=O)N(C2CCCCC2)[C@@H]1c1ccc(CO)cc1	-0.214
C[C@]1(C(=O)NCc2ccccc2)c2ccccc2C(=O)N(Cc2cc(C(F)(F)F)cc(C(F)(F)F)c2)[C@H]1c1ccc(CO)cc1	-1.61
C=CC[C@]1(C(=O)N2CCCCC2)N=C(c2ccc(OCCCO)cc2)O[C@H]1c1ccccc1N=[N+]=[N-]	-2.21
CC[C@@H]1C=C(C(=O)O)[C@H](c2ccccc2)N1S(=O)(=O)c1ccc([N+](=O)[O-])cc1	-1.01
C[C@@H]1CC[C@H]2C(=O)N3CCC[C@H]3C(=O)N2[C@H]1c1ccc(Br)cc1	0.371
C[C@H]1C2[C@H](Cc3ccccc3)NC(=O)[C@]23C(=O)N[C@H](Cc2ccccc2)C(=O)N[C@@H](Cc2ccccc2)C(=O)NC/C=C\C/C=C/C3[C@@H]2O[C@]12C (some centres undefined)	-0.873
C=CC[C@]1(C(N)=O)N=C(c2ccc(OCCCO)cc2)O[C@H]1c1ccccc1CN=[N+]=[N-]	-2.04
O=C1C2C=CC(C(O)Cc3ccccc3)N(Nc3ccc([N+](=O)[O-])cc3)C2C(=O)N1c1ccccc1 (centres undefined)	-0.463
CO[C@H]1COC(=O)[C@@H](OCc2ccccc2)C=C[C@H](C)[C@@H](OC)COC(=O)[C@H](OCc2ccccc2)C=C[C@@H]1C	0.313
C[C@H]1COC(=O)[C@H](Cc2ccccc2)NC(=O)[C@@H](C)COC(=O)[C@H](Cc2ccccc2)NC1=O	-0.703
C=C(COC)C(=O)CC[C@H](OC(=O)c1ccccc1-c1ccccc1C(=O)O)c1cccc(OCCO)c1	-0.034
CN1C(=O)C2C=CC(C(O)c3ccc(N(C)C)cc3)N(Nc3ccc([N+](=O)[O-])cc3[N+](=O)[O-])C2C1=O (centres undefined)	0.985
CO[C@H]1COC(=O)[C@@H](C)COC(=O)[C@H](Cc2ccccc2)NC(=O)CC=C[C@H]1C	-0.178
CC(C)[Si]1(C(C)C)OCc2cc(C3CC3)nc(-c3ccccc3)c21	-1.16
C[C@@H]1NC(=O)[C@H](Cc2ccccc2)NC(=O)[C@@]23C(=O)N[C@@H](Cc4ccccc4)C2[C@H](C)[C@@]2(C)O[C@H]2C3/C=C/C/C=C\CNC1=O (some centres undefined)	-0.5
COc1cc(CO)cc(I)c1O[C@H]1C=C(C(=O)NCCO)C[C@@H](N(CC2CCCCC2)C(=O)c2cc3ccccc3oc2=O)[C@@H]1O	1.04
CCCCO[C@H]1C[C@H]2C(Br)=C[C@@]1(CO)C(=O)[C@]21CO1	0.0951
Cc1cc(C)c(C(O)C2C=CC3C(=O)N(C)C(=O)C3N2N2CCCCC2)c(C)c1 (centres undefined)	1.09
O=C1C2C=CC(C(O)C(c3ccccc3)c3ccccc3)N(Nc3ccc([N+](=O)[O-])cc3)C2C(=O)N1c1ccccc1 (centres undefined)	0.535
COCCOC(=O)N1C(=O)[C@@]2(c3cc(C#CC4=CCCCC4)ccc31)[C@H](C(=O)NC[C@H](O)c1ccccc1)[C@H]1C(=O)O[C@H](c3ccccc3)[C@H](c3ccccc3)N1[C@@H]2c1ccccc1OCCO	-2.02
CN(C)C(=O)[C@@]1(Cc2ccccc2N=[N+]=[N-])N=C(c2ccc(OCCCO)cc2)O[C@H]1c1ccccc1CN=[N+]=[N-]	-2.25
N#Cc1ccc(NN2C(C(O)CCc3ccccc3)C=CC3C(=O)N(c4ccccc4)C(=O)C32)cc1 (centres undefined)	0.484
[N-]=[N+]=NCc1ccccc1C[C@]1(C(N)=O)N=C(c2ccc(OCCCO)cc2)O[C@H]1c1ccccc1CN=[N+]=[N-]	-2.29

Source listed as PubChem BioAssay.
